Source: patent US20070178531A1

# TARGET: T1, Mouse Id1: Histidine (mouse, UniProt P20067-2 1-148, limits assumed)
# T1 construct: Fusion protein made in E. coli from vector pGW07; also called m-Id1-His; not shown: His tag
# T1 sequence (looked up): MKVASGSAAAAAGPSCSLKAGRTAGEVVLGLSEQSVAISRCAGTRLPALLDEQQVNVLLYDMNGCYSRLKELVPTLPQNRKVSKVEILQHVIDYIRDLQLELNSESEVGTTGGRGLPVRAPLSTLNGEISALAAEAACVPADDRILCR
# EXPERIMENTAL_DETAILS: ELISA, Ab 0.025 µg/ml
In this section we review reported A450 values for a set of binders.
Your answer is read as A450, so omit the unit and give the number.

A selection of reference data follows.
BINDER: rabbit monoclonal anti-mouse/human Id3, clone #BCH-4/#16-1 (antibody, V domains shown, Rabbit IgG from a rabbit hybridoma; also called m/h Id3 MoAb 16-1) VH: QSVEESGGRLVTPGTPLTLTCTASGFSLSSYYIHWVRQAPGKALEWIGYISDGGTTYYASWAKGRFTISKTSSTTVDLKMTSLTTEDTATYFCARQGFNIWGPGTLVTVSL VL: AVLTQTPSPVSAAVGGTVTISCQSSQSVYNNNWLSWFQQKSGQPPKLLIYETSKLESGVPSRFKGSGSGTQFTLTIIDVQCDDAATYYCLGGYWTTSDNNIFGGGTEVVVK
A450 / A450: 0.044
--
BINDER: rabbit monoclonal anti-mouse/human Id3, clone #BCH-4/#6-1 (antibody, V domains shown, Rabbit IgG from a rabbit hybridoma; also called m/h Id3 MoAb 6-1) VH: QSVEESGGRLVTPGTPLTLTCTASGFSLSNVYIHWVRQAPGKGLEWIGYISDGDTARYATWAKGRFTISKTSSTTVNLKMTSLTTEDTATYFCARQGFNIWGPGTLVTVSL VL: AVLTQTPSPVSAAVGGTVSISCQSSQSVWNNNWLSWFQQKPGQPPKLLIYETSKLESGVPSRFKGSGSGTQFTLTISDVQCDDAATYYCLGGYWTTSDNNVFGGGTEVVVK
A450 / A450: 0.046

Now take the following binder into account.
Item under review: rabbit monoclonal anti-human Id3, clone #BCH-4/#3-3 (antibody, V domains shown, Rabbit IgG from a rabbit hybridoma; also called h Id3 MoAb 3-3) VH: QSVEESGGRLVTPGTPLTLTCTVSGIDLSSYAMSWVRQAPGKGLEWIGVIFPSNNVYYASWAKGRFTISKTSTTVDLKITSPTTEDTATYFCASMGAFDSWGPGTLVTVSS VL: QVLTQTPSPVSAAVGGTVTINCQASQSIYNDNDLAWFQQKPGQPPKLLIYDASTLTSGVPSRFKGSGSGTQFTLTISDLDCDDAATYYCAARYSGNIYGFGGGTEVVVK . Reported A450?
0.044
